- SYSTEM_NAME: human M1 receptor (hCHRM1) (Homo sapiens, UniProt P11229)
- Construct: expressed in transfected cells
- Sequence (P11229 whole entry): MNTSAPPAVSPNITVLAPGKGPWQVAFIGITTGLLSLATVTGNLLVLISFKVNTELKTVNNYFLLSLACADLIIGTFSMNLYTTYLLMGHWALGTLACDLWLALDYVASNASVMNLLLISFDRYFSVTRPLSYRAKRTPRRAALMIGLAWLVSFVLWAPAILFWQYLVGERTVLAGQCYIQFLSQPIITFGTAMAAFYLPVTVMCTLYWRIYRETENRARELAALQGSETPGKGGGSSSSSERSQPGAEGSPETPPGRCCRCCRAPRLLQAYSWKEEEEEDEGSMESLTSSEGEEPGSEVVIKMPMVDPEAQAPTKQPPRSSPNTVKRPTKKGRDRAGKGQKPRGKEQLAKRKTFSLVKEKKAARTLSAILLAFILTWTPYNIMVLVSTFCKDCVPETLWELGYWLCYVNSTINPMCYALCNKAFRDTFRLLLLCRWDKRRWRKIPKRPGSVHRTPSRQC
- RUN_DESCRIPTION: Measurement of M1 receptor positive allosteric modulator (M1PAM) activity, calcium fluorescence (FLIPRtetra)
- Type: cell-based
- PROTOCOL_CONDITIONS: 10 μM test compound with acetylcholine at EC20 (final 0.6-0.8 nM); 100% = acetylcholine 1 μM, 0% = DMSO; CHO-K1 cells expressing hCHRM1
METRIC_NAME: activity (%) at 10 μM

Need activity (%) at 10 μM, item Cn1ccc(-c2ccc(Cc3cc(C(=O)N[C@H]4CCCC[C@@H]4O)ncc3Cl)cc2)n1 [Example 52]
100

// activity (%) at 10 μM lookup, key: Cc1cnc(C(=O)N[C@H]2COCC[C@@H]2O)cc1Cc1ccc(-c2ccn(C)n2)cc1F
91

Requested field: activity (%) at 10 μM. Item: COc1cnc(C(=O)N[C@H]2CCCC[C@@H]2O)cc1Cc1ccc(-c2cnn(C)c2)cc1
104

Quick one: activity (%) at 10 μM of O=C(N[C@H]1CCCC[C@@H]1O)c1cc(Cc2ccc(-n3cccn3)cc2)ccn1 ?
102

Which activity (%) at 10 μM value is on record for Cc1nc(C(=O)N[C@H]2COCC[C@@H]2O)cc(Cc2ccc(-n3cccn3)cc2)c1C ?
104

Bench note: what activity (%) at 10 μM did O=C(N[C@H]1COCC[C@@H]1O)c1cc(Cc2ccc(-n3cccn3)cc2)c(OC(F)F)cn1 show?
99

What does the data say about its activity (%) at 10 μM? Entry: O=C(N[C@H]1COCC[C@@H]1O)c1cc(Cc2ccc(-n3cccn3)cc2)c(C(F)F)cn1
100

Would you kindly share the measured activity (%) at 10 μM for Cc1nc(C(=O)N[C@H]2CCC[C@@H]2O)cc(Cc2ccc(-c3ccn(C)n3)cc2)c1Cl ?
93

Give the measured activity (%) at 10 μM of Cc1cnc(C(=O)N[C@H]2CCCC[C@@H]2O)cc1Cc1ccc(-c2cn(C)nc2C)cc1 .
107

Recorded activity (%) at 10 μM of Cc1nc(C(=O)N[C@H]2COCC[C@@H]2O)cc(Cc2ccc(-c3ccn(C)n3)cc2)c1Cl , please.
112

###

- SYSTEM_NAME: human M1 receptor (hCHRM1) (Homo sapiens, UniProt P11229)
- Construct: expressed in transfected cells
- RUN_DESCRIPTION: Measurement of M1 receptor positive allosteric modulator (M1PAM) activity, calcium fluorescence (FLIPRtetra)
- Assay type: cell-based
- PROTOCOL_CONDITIONS: 10 μM test compound with acetylcholine at EC20 (final 0.6-0.8 nM); 100% = acetylcholine 1 μM, 0% = DMSO; CHO-K1 cells expressing hCHRM1
Counter-ions that a name gives are not always drawn.
METRIC_NAME: activity (%) at 10 μM

Query the reported activity (%) at 10 μM for human M1 receptor (hCHRM1) (Homo sapiens, UniProt P11229); item: Cc1cnc(C(=O)NC2CCC2)cc1Cc1ccc(-c2ccn(C)n2)cc1
93

Give the reported activity (%) at 10 μM for Cc1cnc(C(=O)N[C@H]2COCC[C@@H]2O)cc1Cc1ccc(-n2cccn2)cc1F [Example 36] (system: human M1 receptor (hCHRM1) (Homo sapiens, UniProt P11229)).
95

I'm curious: which activity (%) at 10 μM was measured for Cc1nc(C(=O)N[C@H]2CCC[C@@H]2O)cc(Cc2ccc(-n3cccn3)cc2)c1Cl tested on human M1 receptor (hCHRM1) (Homo sapiens, UniProt P11229)?
97

Lab request: please report activity (%) at 10 μM under test system human M1 receptor (hCHRM1) (Homo sapiens, UniProt P11229) for O=C(N[C@H]1CCC[C@@H]1O)c1cc(Cc2ccc(-n3cccn3)cc2)c(Cl)cn1
104

Lab request: please report activity (%) at 10 μM under test system human M1 receptor (hCHRM1) (Homo sapiens, UniProt P11229) for N#Cc1cnc(C(=O)N[C@H]2CCCC[C@@H]2O)cc1Cc1ccc(-n2cccn2)cc1
95

Notebook entry, human M1 receptor (hCHRM1) (Homo sapiens, UniProt P11229) assay: activity (%) at 10 μM of Cn1ccc(-c2ccc(Cc3cc(C(=O)N[C@H]4CCCC[C@@H]4O)ncc3C(F)F)cc2)n1 = ?
95

Form field: activity (%) at 10 μM recorded for Cc1cnc(C(=O)N[C@H]2COCC[C@@H]2O)cc1Cc1ccc(-c2ccn(C)n2)cc1 with human M1 receptor (hCHRM1) (Homo sapiens, UniProt P11229) (enter value)
100

Hi! What's the reported activity (%) at 10 μM for Cc1cnc(C(=O)N[C@H]2CCCC[C@@H]2O)cc1Cc1ccc(-n2cccn2)cc1 (relative stereo) [Example 4] on human M1 receptor (hCHRM1) (Homo sapiens, UniProt P11229)?
98

What activity (%) at 10 μM appears in the records for this compound with human M1 receptor (hCHRM1) (Homo sapiens, UniProt P11229)? Cc1cnc(C(=O)N[C@H]2CCC[C@@H]2O)cc1Cc1ccc(-c2ccn(C)n2)cc1F
98

So what activity (%) at 10 μM did Cc1ccc(Cc2cc(C(=O)N[C@H]3CCCC[C@@H]3O)nc(C)c2C)cn1 get with human M1 receptor (hCHRM1) (Homo sapiens, UniProt P11229)?
93

Enter reported activity (%) at 10 μM observed with human M1 receptor (hCHRM1) (Homo sapiens, UniProt P11229) for COC1CCCCC1NC(=O)c1cc(Cc2ccc(-c3ccn(C)n3)cc2)c(C)cn1 (centres unmarked)
105

Form field: activity (%) at 10 μM recorded for O=C(N[C@H]1CCCC[C@@H]1O)c1cc(Cc2ccc(-n3cccn3)cc2)c(F)cn1 with human M1 receptor (hCHRM1) (Homo sapiens, UniProt P11229) (enter value)
97

Field: activity (%) at 10 μM (human M1 receptor (hCHRM1) (Homo sapiens, UniProt P11229)). Entry: Cc1cnc(C(=O)N[C@H]2c3ccccc3C[C@H]2O)cc1Cc1ccc(-c2ccn(C)n2)cc1
87

Record lookup: for human M1 receptor (hCHRM1) (Homo sapiens, UniProt P11229), what activity (%) at 10 μM belongs to COc1ccc(Cc2cc(C(=O)N[C@H]3CCCC[C@@H]3O)ncc2C)cc1 ?
104

Value wanted: activity (%) at 10 μM (human M1 receptor (hCHRM1) (Homo sapiens, UniProt P11229)) of entry Cc1nc(C(=O)N[C@H]2CCCC[C@@H]2O)cc(Cc2ccc(Br)cc2)c1C
100

Form field - read-out: activity (%) at 10 μM; system: human M1 receptor (hCHRM1) (Homo sapiens, UniProt P11229); submitted item: O=C(N[C@H]1CCCC[C@@H]1O)c1cc(Cc2ccc(-n3cccn3)cc2F)c(Cl)cn1
99

Recorded activity (%) at 10 μM for Cc1cnc(C(=O)NC2(CO)CCCC2)cc1Cc1ccc(-c2ccn(C)n2)cc1 with human M1 receptor (hCHRM1) (Homo sapiens, UniProt P11229), please?
75

Hello, I am looking for reported activity (%) at 10 μM with human M1 receptor (hCHRM1) (Homo sapiens, UniProt P11229) for Cn1ccc(-c2ccc(Cc3cc(C(=O)N[C@H]4CCCC[C@@H]4O)ncc3Cl)cc2)n1 [Example 51] . Could you help?
95

GET /values?readout=activity (%) at 10 μM&system=human M1 receptor (hCHRM1) (Homo sapiens, UniProt P11229)&item= O=C(N[C@H]1COCC[C@@H]1O)c1cc(Cc2ccc(-n3cccn3)cc2)c(Cl)cn1 [Example 8, Hydrochloride]
92

Lab note: need activity (%) at 10 μM for Cc1nc(C(=O)N[C@H]2CCCC[C@@H]2O)cc(Cc2ccc(-c3cnn(C)c3)cc2)c1C on human M1 receptor (hCHRM1) (Homo sapiens, UniProt P11229), anyone have it?
106

Short answer please: activity (%) at 10 μM, human M1 receptor (hCHRM1) (Homo sapiens, UniProt P11229), entry Cc1ccc(Cc2cc(C(=O)N[C@H]3COCC[C@@H]3O)nc(C)c2Cl)cn1
90

Query the reported activity (%) at 10 μM for human M1 receptor (hCHRM1) (Homo sapiens, UniProt P11229); item: COc1cnc(C(=O)N[C@H]2CCCC[C@@H]2O)cc1Cc1ccc(Cl)nc1 [Example 57]
95

Kindly state the measured activity (%) at 10 μM obtained for Cc1nc(C(=O)N[C@H]2COCC[C@@H]2O)cc(Cc2ccc(-n3cccn3)cc2)c1C#N with human M1 receptor (hCHRM1) (Homo sapiens, UniProt P11229).
94

Give human M1 receptor (hCHRM1) (Homo sapiens, UniProt P11229) activity (%) at 10 μM for Cc1cnc(C(=O)N[C@H]2CCC[C@@H]2O)cc1Cc1ccc(-n2cccn2)cc1 [Example 50]
105

Kindly state the measured activity (%) at 10 μM obtained for Cc1cnc(C(=O)NC2CCOCC2)cc1Cc1ccc(-c2ccn(C)n2)cc1 with human M1 receptor (hCHRM1) (Homo sapiens, UniProt P11229).
88

Item: Cc1nc(C(=O)N[C@H]2CCCC[C@@H]2O)cc(Cc2ccc(-n3cccn3)cc2)c1C Test system: human M1 receptor (hCHRM1) (Homo sapiens, UniProt P11229) Read-out: activity (%) at 10 μM Value: ?
92
